- Test name: Antiarrhythmic activity in sinusoidal alternating current-induced guinea pig left atrium assessed as increase in current strength at which extra beats occur at 50 uM measured every 30 mins
- Format: functional, Cavia porcellus, Cardiac atrium
Value kind: Activity (%)
One number for each entry, in %.

The value of Activity measured for the compound "Cc1cc(C)c(NC(=O)C[C@@H]2CCCN3CCCC[C@H]23)c(C)c1" turned out to be 49

State recorded Activity for all listed compounds.
1. COc1ccc2c(c1)nc(-c1ccccc1)c(=O)n2C[C@H]1CCCN2CCCC[C@@H]12
2. Cc1cccc(C)c1NC(=O)CSC[C@@H]1CCCN2CCCC[C@H]12 [LUPINYLTHIOACETYLANILIDE]
3. O=C(C[C@@H]1CCCN2CCCC[C@H]12)Nc1c(Cl)cccc1Cl
4. COc1cc(N)c(Cl)cc1C(=O)NC[C@@H]1CCCN2CCCC[C@H]12

1: 30; 2: 67; 3: 32; 4: 113

The value of Activity measured for the compound "Cc1cc(C(=O)c2ccccc2)ccc1NC(=O)C[C@@H]1CCCN2CCCC[C@H]12" turned out to be 64
